Origin of the recorded values: PubChem BioAssay (NCI)

Reported TGI values for a set of compounds
# Tested on: MCF7 breast
# procedure-details: NCI tumour cell line growth inhibition, 48 h

>>> result("Oc1cccnc1CN1CCCCC1")
"> 100 µM"

Query string: Entry under review: "Nc1cc2[nH]c(=O)c(=O)[nH]c2cc1N" . Reported TGI?
Result string: > 100 µM

Query string: Now give it for "O=C(O)Cc1cccc2c(=O)c3ccccc3oc12" too.
Result string: > 100 µM

----------
Reported TGI values for a set of compounds
# Tested on: UO-31 renal
# procedure-details: NCI tumour cell line growth inhibition, 48 h

>>> result("CCOC(=O)C1=C(C)N(NC(=O)Nc2ccccc2)C(=O)C1=P(c1ccccc1)(c1ccccc1)c1ccccc1")
"> 100 µM"
>>> result("CC(C)(C)c1cc(Br)c(O)c(CN(Cc2cc(C(C)(C)C)cc(Br)c2O)C2CCCCC2)c1")
"27.4 µM"
>>> result("N#CCN1C(=O)c2cccc3cc([N+](=O)[O-])cc(c23)C1=O")
"> 100 µM"

Query string: Entry under review: "NC(N)=NCCC[C@H](N)C(=O)NCC(=O)N[C@@H](CC(=O)O)c1ncc(NC(=O)C(F)(F)F)o1" . Reported TGI?
Result string: > 25 µM

Query string: Now give it for "CN1C/C=C\CCOc2cccc(c2)-c2ccnc(n2)Nc2cccc(c2)C1" too.
Result string: 0.46 µM

Query string: Now give it for "Cc1cccc(N2CCN(C(=S)c3ccc4c(c3)OCO4)CC2)c1" too.
Result string: > 100 µM

Query string: Now give it for O=C(O)C1OC(n2cc(F)c(=O)[nH]c2=O)CC1O (stereo not drawn) too.
Result string: > 100 µM

Query string: Now give it for "Cc1nc(-c2cc3cc([N+](=O)[O-])ccc3oc2=O)cs1" too.
Result string: > 100 µM

Query string: Now give it for "CCCN1CCC(=O)N(CCC(F)(F)C(F)(F)C(F)(F)C(F)(F)C(F)(F)C(F)(F)F)C1=S" too.
Result string: > 100 µM

Query string: Now give it for COC(CNC(=O)C(C)NC(=O)CCc1ccccc1)OC (stereo not drawn) too.
Result string: > 100 µM

----------
Reported TGI values for a set of compounds
# System: U251 CNS
# procedure-details: NCI tumour cell line growth inhibition, 48 h

>>> result("C(=Nc1ccc(-c2nc3ccccc3[nH]2)cc1)c1cccs1")
"> 100 µM"
>>> result("O=S(=O)(N=S(c1ccccc1)c1ccccc1)c1ccccc1")
"> 100 µM"

Please examine the following record next.
Query string: Entry under review: COc1cc(/C=C2\C(=O)N(c3ccccc3)C(c3ccccc3)S2(=O)=O)cc(OC)c1OC (stereo not drawn) . Reported TGI?
Result string: > 100 µM

----------
# System: MOLT-4 leukemia
# procedure-details: NCI tumour cell line growth inhibition, 48 h
property-measured: TGI

Look over these answered cases.
>>> result("O=Cc1c(C(=O)O)[nH]c(=O)[nH]c1=O")
"> 100 µM"
>>> result("NC(N)=N/N=C(\\c1nc2ccc([N+](=O)[O-])cc2[nH]c1=O)C(O)c1ccc([N+](=O)[O-])cc1 (stereo not drawn)")
"> 100 µM"

Please examine the following record next.
Query string: Entry under review: "COC(=O)[C@@H](C)CNS(=O)(=O)N(c1cc(C(F)(F)F)cc(C(F)(F)F)c1)C1CCN(Cc2ccc(F)cc2)CC1" . Reported TGI?
Result string: 27.4 µM
